Target: HDAC-8 (Homo sapiens, UniProt Q9BY41)
Sequence (Q9BY41 1-377): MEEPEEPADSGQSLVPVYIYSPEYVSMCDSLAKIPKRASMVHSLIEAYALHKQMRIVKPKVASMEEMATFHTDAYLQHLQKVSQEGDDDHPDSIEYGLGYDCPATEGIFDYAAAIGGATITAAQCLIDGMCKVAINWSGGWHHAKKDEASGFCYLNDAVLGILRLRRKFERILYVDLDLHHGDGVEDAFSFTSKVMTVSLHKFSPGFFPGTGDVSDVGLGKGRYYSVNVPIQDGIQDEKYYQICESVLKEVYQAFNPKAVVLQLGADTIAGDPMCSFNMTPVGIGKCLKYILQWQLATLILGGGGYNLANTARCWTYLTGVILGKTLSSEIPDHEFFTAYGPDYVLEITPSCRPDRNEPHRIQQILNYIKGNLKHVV
Listing of entries alongside the reported IC50.

In the examples that follow, each entry is paired with its recorded IC50.
> print(dat)
                                   compound                          tested.system  experimental.value
1  O=C(Nc1nc2ccccc2s1)C(S)Cc1ccccc1 (stereo not shown)  HDAC-8 (Homo sapiens, UniProt Q9BY41)            > 100 µM
2  COc1ccc(NC(=O)C(S)Cc2ccccc2)cc1 (stereo not shown)  HDAC-8 (Homo sapiens, UniProt Q9BY41)            > 100 µM
3  Cc1ccc(NC(=O)C(S)Cc2ccccc2)cc1 (stereo not shown)  HDAC-8 (Homo sapiens, UniProt Q9BY41)            > 100 µM

Shift focus to the following entry.
Query: Give the measured IC50 for O=C(Nc1ccc(O)cc1)C(S)Cc1ccccc1 (stereo not shown)
Reply: > 250 µM

---

Target: LasB (Pseudomonas aeruginosa)
Sequence (Q02RJ6 198-498): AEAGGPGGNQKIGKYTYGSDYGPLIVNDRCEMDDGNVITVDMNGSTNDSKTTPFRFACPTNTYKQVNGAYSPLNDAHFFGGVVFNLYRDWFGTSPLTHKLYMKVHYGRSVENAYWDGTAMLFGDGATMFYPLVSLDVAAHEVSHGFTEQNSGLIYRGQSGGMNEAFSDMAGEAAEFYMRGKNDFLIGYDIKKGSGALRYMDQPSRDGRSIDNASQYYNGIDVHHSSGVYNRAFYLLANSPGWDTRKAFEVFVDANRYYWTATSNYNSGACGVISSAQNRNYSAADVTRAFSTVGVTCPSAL
Experiment: LasB inhibition assay (FRET-based, in vitro)
Details: read-out: IC50 against LasB; mean and SD of at least two independent experiments
quantity.name: IC50
Entry format: amount then unit.

Query: With LasB (Pseudomonas aeruginosa) as the test system, provide measured IC50 for this compound: O=C(Nc1ccccc1)C(S)Cc1ccccc1 (stereo not shown) [Compound 5]
Reply: 1200 nM

---

# collection of pIC50 values tested on HDAC-3 (Homo sapiens, UniProt O15379)
# Sequence (O15379 whole entry): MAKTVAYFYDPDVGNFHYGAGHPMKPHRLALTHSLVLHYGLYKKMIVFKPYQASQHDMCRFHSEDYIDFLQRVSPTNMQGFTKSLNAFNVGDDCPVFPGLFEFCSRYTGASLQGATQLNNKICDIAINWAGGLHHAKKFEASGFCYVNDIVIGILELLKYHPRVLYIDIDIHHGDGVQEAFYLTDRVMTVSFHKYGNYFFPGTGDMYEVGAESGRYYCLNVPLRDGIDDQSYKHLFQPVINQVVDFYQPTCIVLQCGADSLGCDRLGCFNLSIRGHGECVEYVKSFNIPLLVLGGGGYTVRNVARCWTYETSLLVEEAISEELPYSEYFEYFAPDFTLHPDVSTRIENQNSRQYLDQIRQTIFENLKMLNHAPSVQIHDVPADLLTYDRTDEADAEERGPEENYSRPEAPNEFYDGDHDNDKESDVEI
# Sequence (Q9Y618 395-489 partner limits assumed): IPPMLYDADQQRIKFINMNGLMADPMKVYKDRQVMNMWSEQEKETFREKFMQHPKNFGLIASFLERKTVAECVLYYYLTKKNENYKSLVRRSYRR
pIC50: −log10 of the molar value.

> print(dat)
                                   compound  experimental.value
1  O=C(Nc1nc2ccccc2s1)C(S)Cc1ccccc1 (stereo not shown) [Compound 23]              < 4.00
2  Cc1ccc(NC(=O)C(S)Cc2ccccc2)cc1 (stereo not shown) [Compound 3]              < 4.00
3  COc1ccc(NC(=O)C(S)Cc2ccccc2)cc1 (stereo not shown) [Compound 12]              < 4.00

Query: Give the measured pIC50 for O=C(Nc1ccc(O)cc1)C(S)Cc1ccccc1 (stereo not shown) [Compound 13]
Reply: < 3.60

---

# collection of Ki values tested on ColH-PD (Hathewaya histolytica, UniProt Q46085)
# Sequence (Q46085 331-721 limits assumed): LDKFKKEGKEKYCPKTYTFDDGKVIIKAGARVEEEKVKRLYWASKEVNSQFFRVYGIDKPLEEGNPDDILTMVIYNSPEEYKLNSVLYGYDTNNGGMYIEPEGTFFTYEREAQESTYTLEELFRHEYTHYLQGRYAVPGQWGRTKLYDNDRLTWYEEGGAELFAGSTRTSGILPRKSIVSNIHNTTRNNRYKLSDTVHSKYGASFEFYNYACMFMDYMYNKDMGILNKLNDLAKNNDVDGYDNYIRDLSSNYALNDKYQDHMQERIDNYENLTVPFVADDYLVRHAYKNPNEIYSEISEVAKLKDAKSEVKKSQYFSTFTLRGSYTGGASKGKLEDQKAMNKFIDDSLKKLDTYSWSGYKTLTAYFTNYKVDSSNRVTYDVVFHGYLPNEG
Form entry: value (nM) — number only.

> print(dat)
                                   compound  unit.descriptor  experimental.value
1  O=C(Nc1ccc(O)cc1)C(S)Cc1ccccc1 (stereo not drawn)               nM                 100
2  Cc1ccc(NC(=O)C(S)Cc2ccccc2)cc1 (stereo not drawn)               nM                  50
3  COc1ccc2nc(NC(=O)C(S)Cc3ccccc3)sc2c1 (stereo not drawn)               nM               28000
4  O=C(Nc1ccccc1)C(S)Cc1ccccc1 (stereo not drawn)               nM                 400

Query: With ColH-PD (Hathewaya histolytica, UniProt Q46085) as the test system, provide measured Ki for this compound: O=C(Nc1nc2ccccc2s1)C(S)Cc1ccccc1 (stereo not drawn)
Reply: 100

Query: With ColH-PD (Hathewaya histolytica, UniProt Q46085) as the test system, provide measured Ki for this compound: COc1ccc(NC(=O)C(S)Cc2ccccc2)cc1 (stereo not drawn)
Reply: 40
